B1: NCF4 (parent)
chain: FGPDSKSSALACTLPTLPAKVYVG

# Variants of: B1
# Assay Method Text: protein stability index of a GFP-peptide fusion (GPS, HEK-293T) (PSI 1-6); higher = more stable;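 note: lentivirally expressed fusions sorted by FACS into six bins by GFP to DsRed ratio, PSI derived from sequencing read proportions per bin multiplied by bin number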
# Condition Description: c terminus: a fixed tail appended
Items are presented alongside their recorded protein stability index.
Reply briefly: the number, and no unit.

Worked set:
# Sequence Input, protein stability index
measured = [
    ("FGPDSKSSALACTLPTLPTKVYVG", 2.05),
    ("FGPDSKSSALACTLPTLPAKVPVG", 2.96),
    ("FGPDSKSSALACTLPTLAAKVYVG", 2.98),
]

Query variant follows.
# variant FGPDSKSSALACTLPALPAKVYVG ; its protein stability index = 2
